system: C. albicans ATCC 10231 (strain B); assay: MIC and checkerboard assay, azoles + compounds 1-5; format: cell-based, Candida albicans; settings: in combination with VOR
metric: combinational effect (FICI interpretation)

O=C(CCCN1CCC(O)(c2ccc(Br)cc2)CC1)c1ccccc1 [Compound 1] | partial synergy
O=C(CCCN1CCC(O)(c2ccc(Br)cc2)CC1)c1ccc(F)cc1 [Compound 2, bromperidol] | partial synergy
O=C(CCCN1CCC(O)(c2ccc(Br)cc2)CC1)c1ccc(Cl)cc1 [Compound 3] | partial synergy
